System: ragweed (common ragweed, Ambrosia elatior)
Test: Test E greenhouse herbicide test, pre- and postemergence
Assay type: in vivo
Conditions: 125 g ai/ha, Postemergence; scale 0 to 100 (0 no effect, 100 complete control)
Below, each of the compounds is paired with its reported Plant response rating, Ragweed value.
endpoint.label: Plant response rating, Ragweed

1. Cc1cc2ccccc2c(-c2c(O)c(C)nn(C)c2=O)c1C [Compound 34] | 90
2. Cc1nn(C)c(=O)c(-c2cccc3ccc(Br)cc23)c1O [Compound 126] | 100
3. CCc1sc2ccc(C)cc2c1-c1c(O)c(C)nn(C)c1=O [Compound 47] | 95
4. Cc1ccc2sc(Br)c(-c3c(O)c(C)nn(C)c3=O)c2c1 [Compound 79] | 95
